Would you kindly list FIC90 for each of these compounds?
System: Mycobacterium tuberculosis Erdman (autoluminescent)
Assay: FIC90 (Loewe) at 90% inhibition (log2); higher = more antagonistic
Conditions: in vitro model: intracellular J774; time point: constant = terminal

Mycobacterium tuberculosis Erdman (autoluminescent) data for CC(C)/N=c1\cc2n(-c3ccc(Cl)cc3)c3ccccc3nc-2cc1Nc1ccc(Cl)cc1 [clofazimine] + NNC(=O)c1ccncc1 [isoniazid] ; its FIC90: 0.406

Mycobacterium tuberculosis Erdman (autoluminescent) data for CC(C)/N=c1\cc2n(-c3ccc(Cl)cc3)c3ccccc3nc-2cc1Nc1ccc(Cl)cc1 [clofazimine] + CC(=O)NC[C@H]1CN(c2ccc(N3CCOCC3)c(F)c2)C(=O)O1 [linezolid] ; its FIC90: 0.457

Mycobacterium tuberculosis Erdman (autoluminescent) data for NNC(=O)c1ccncc1 [isoniazid] + COc1c(N2C[C@@H]3CCCN[C@@H]3C2)c(F)cc2c(=O)c(C(=O)O)cn(C3CC3)c12 [moxifloxacin] ; its FIC90: 0.465

---

Would you kindly list GRinf for each of these compounds?
Tested on: Mycobacterium tuberculosis Erdman (autoluminescent)
Test: GRinf, maximum normalised growth rate inhibition (unitless (-1 to 1)); higher = less effect (negative = killing)
Settings: in vitro model: valerate; time point: constant (~7 days, model-specific)

Just so you know, measured GRinf for COc1nc2ccc(Br)cc2cc1[C@@H](c1ccccc1)[C@@](O)(CCN(C)C)c1cccc2ccccc12 [bedaquiline] + CO[C@H]1/C=C/O[C@@]2(C)Oc3c(C)c(O)c4c(O)c(c(/C=N/N5CCN(C6CCCC6)CC5)c(O)c4c3C2=O)NC(=O)/C(C)=C\C=C\[C@H](C)[C@H](O)[C@@H](C)[C@@H](O)[C@@H](C)[C@H](OC(C)=O)[C@@H]1C [rifapentine] came out at -0.0573

Just so you know, measured GRinf for COc1nc2ccc(Br)cc2cc1[C@@H](c1ccccc1)[C@@](O)(CCN(C)C)c1cccc2ccccc12 [bedaquiline] + NC(=O)c1cnccn1 [pyrazinamide] came out at -0.0105

Just so you know, measured GRinf for CC[C@@H](CO)NCCN[C@@H](CC)CO [ethambutol] + COc1c(N2C[C@@H]3CCCN[C@@H]3C2)c(F)cc2c(=O)c(C(=O)O)cn(C3CC3)c12 [moxifloxacin] came out at -0.0437

Just so you know, measured GRinf for COc1nc2ccc(Br)cc2cc1[C@@H](c1ccccc1)[C@@](O)(CCN(C)C)c1cccc2ccccc12 [bedaquiline] + CC(=O)NC[C@H]1CN(c2ccc(N3CCOCC3)c(F)c2)C(=O)O1 [linezolid] came out at -0.0681

---

Would you kindly list AUC25 for each of these compounds?
Tested on: Mycobacterium tuberculosis Erdman (autoluminescent)
Assay: AUC25, normalised area under dose response up to IC25 (fraction (0-1)); higher = more potent at low dose
Settings: in vitro model: cholesterol-high 0.2 mM; time point: constant (~7 days, model-specific)
Give only the figure.

Mycobacterium tuberculosis Erdman (autoluminescent) data for CC(=O)NC[C@H]1CN(c2ccc(N3CCOCC3)c(F)c2)C(=O)O1 [linezolid] + CO[C@H]1/C=C/O[C@@]2(C)Oc3c(C)c(O)c4c(O)c(c(/C=N/N5CCN(C6CCCC6)CC5)c(O)c4c3C2=O)NC(=O)/C(C)=C\C=C\[C@H](C)[C@H](O)[C@@H](C)[C@@H](O)[C@@H](C)[C@H](OC(C)=O)[C@@H]1C [rifapentine] ; its AUC25: 0.109

Mycobacterium tuberculosis Erdman (autoluminescent) data for O=[N+]([O-])c1cn2c(n1)OC[C@@H](OCc1ccc(OC(F)(F)F)cc1)C2 [pretomanid] + NC(=O)c1cnccn1 [pyrazinamide] ; its AUC25: 0.0725

Mycobacterium tuberculosis Erdman (autoluminescent) data for COc1nc2ccc(Br)cc2cc1[C@@H](c1ccccc1)[C@@](O)(CCN(C)C)c1cccc2ccccc12 [bedaquiline] + NC(=O)c1cnccn1 [pyrazinamide] ; its AUC25: 0.0781

Mycobacterium tuberculosis Erdman (autoluminescent) data for CC[C@@H](CO)NCCN[C@@H](CC)CO [ethambutol] + NNC(=O)c1ccncc1 [isoniazid] ; its AUC25: 0.0277

Mycobacterium tuberculosis Erdman (autoluminescent) data for CC(C)/N=c1\cc2n(-c3ccc(Cl)cc3)c3ccccc3nc-2cc1Nc1ccc(Cl)cc1 [clofazimine] + CO[C@H]1/C=C/O[C@@]2(C)Oc3c(C)c(O)c4c(O)c(c(/C=N/N5CCN(C6CCCC6)CC5)c(O)c4c3C2=O)NC(=O)/C(C)=C\C=C\[C@H](C)[C@H](O)[C@@H](C)[C@@H](O)[C@@H](C)[C@H](OC(C)=O)[C@@H]1C ; its AUC25: 0.102

Mycobacterium tuberculosis Erdman (autoluminescent) data for CC(=O)NC[C@H]1CN(c2ccc(N3CCOCC3)c(F)c2)C(=O)O1 [linezolid] + NC(=O)c1cnccn1 [pyrazinamide] ; its AUC25: 0.114

Mycobacterium tuberculosis Erdman (autoluminescent) data for NC(=O)c1cnccn1 [pyrazinamide] + CO[C@H]1/C=C/O[C@@]2(C)Oc3c(C)c(O)c4c(O)c(c(/C=N/N5CCN(C6CCCC6)CC5)c(O)c4c3C2=O)NC(=O)/C(C)=C\C=C\[C@H](C)[C@H](O)[C@@H](C)[C@@H](O)[C@@H](C)[C@H](OC(C)=O)[C@@H]1C [rifapentine] ; its AUC25: 0.0949

The measurements presented in this section are drawn from the supplement of paper PMC8617591.
